Measured Feed-to-meat ratio values are reported for all entries that follow.
Tested on: weaned piglets
CONDITIONS: 50 mg/kg in feed (as copper ion); weaned piglets, 30 days
Form rule: numeric answer, no unit written next to it.

Examples with their reported Feed-to-meat ratio follow.
* NC(CC(=O)[O-])C(=O)[O-].O.O.[Cu+2] (racemic) [Compound 7, [(Cu(II))(DL-Asp)(H2O)2]·(H2O)0.16] | 2.198
* N[C@@H](CC(=O)[O-])C(=O)[O-].[Cu+2] [Compound 4, [(Cu(II))(L-Asp)]] | 2.208

Value sought: Feed-to-meat ratio, system weaned piglets, item N[C@@H](CC(=O)[O-])C(=O)[O-].[Cu+2] (racemic) [Compound 6, [(Cu(II))(DL-Asp)]] . Result: 2.173

Value sought: Feed-to-meat ratio, system weaned piglets, item N[C@@H](CC(=O)[O-])C(=O)[O-].O.O.[Cu+2] [Compound 2, [(Cu(II))(L-Asp)(H2O)2]. (H2O)0.34] . Result: 2.116

###

Measured Average weight gain values are reported for all entries that follow.
System: weaned piglets
CONDITIONS: 50 mg/kg in feed (as copper ion); weaned piglets, 30 days
// note: answer is a bare numeric in kg

• NC(CC(=O)[O-])C(=O)[O-].O.O.[Cu+2] (racemic) [Compound 5, [(Cu(II))(DL-Asp)(H2O)2]] = 11.83

Value sought: Average weight gain, system weaned piglets, item N[C@@H](CC(=O)[O-])C(=O)[O-].O.O.[Cu+2] [Compound 2, [(Cu(II))(L-Asp)(H2O)2]. (H2O)0.34] . Result: 12.30

Value sought: Average weight gain, system weaned piglets, item N[C@@H](CC(=O)[O-])C(=O)[O-].O.O.[Cu+2] [Compound 1, [(Cu(II))(L-Asp)(H2O)2]] . Result: 12.12

Value sought: Average weight gain, system weaned piglets, item N[C@@H](CC(=O)[O-])C(=O)[O-].[Cu+2] (racemic) [Compound 6, [(Cu(II))(DL-Asp)]] . Result: 12.08

Value sought: Average weight gain, system weaned piglets, item N[C@@H](CC(=O)[O-])C(=O)[O-].[Cu+2] [Compound 4, [(Cu(II))(L-Asp)]] . Result: 11.67

###

System: Lingnan yellow-feathered, fast-growing, and large-sized broilers
CONDITIONS: 50 mg/kg in feed (as copper ion); broilers aged 1 to 21 days
PARAMETER: Average weight gain (g)
// note: answer is a bare numeric in g

* N[C@@H](CC(=O)[O-])C(=O)[O-].[Cu+2] [Compound 4, [(Cu(II))(L-Asp)]] | 508
* N[C@@H](CC(=O)[O-])C(=O)[O-].[Cu+2] (racemic) [Compound 6, [(Cu(II))(DL-Asp)]] | 510
* NC(CC(=O)[O-])C(=O)[O-].O.O.[Cu+2] (racemic) [Compound 7, [(Cu(II))(DL-Asp)(H2O)2]·(H2O)0.16] | 515
* N[C@@H](CC(=O)[O-])C(=O)[O-].O.O.[Cu+2] [Compound 3, [(Cu(II))(L-Asp)(H2O)2]·(H2O)0.62] | 514

# input for lookup
Form: compound = N[C@@H](CC(=O)[O-])C(=O)[O-].O.O.[Cu+2] [Compound 1, [(Cu(II))(L-Asp)(H2O)2]] ; Average weight gain = 518
